test: reversal of MRP1-mediated doxorubicin resistance, pilot screen, H69AR cells, doxorubicin co-treatment (AID 601); settings: H69AR cells + 2 uM doxorubicin, CellTiter-Glo, 72 h; at 10 µM; stronger effect = higher value
# differential viability (reversal) listing for each entry below
Return type: number; implicit unit %.

Worked cases, answers included:
CC(NC(=O)COc1ccc(Br)cc1)C(=O)O (stereo not given) : 4.2
CCOC(=O)c1ccc2[nH]c(C)c(CN3CCN(C)CC3)c(=O)c2c1 : -0.335
CCN(CC)CCn1c2ccccc2c2nc(C)sc21 : -7.46
CCOc1cc(N2CCOCC2)c(OCC)cc1NC(=O)CSc1cccc[n+]1[O-] : 1.93

Kindly review the next compound as well.
Enquiry: Item under review: COCc1nnc(NC(=O)CCCOc2ccccc2)s1 . Reported differential viability (reversal)?
Return: 10.4

###

assay: growth inhibitors of H69AR lung tumor, primary screen, human, duplicate replicates (AID 580); conditions: H69AR lung tumor cells viability, ATP luminescence, 72 h; at 10 µM;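 note: 100% = mean luminescence of untreated wells and 0% = no signal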
Activity calls are given as the source filed them.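 The calls were made as follows: active = viability at or under a set limit in both replicates, limit being median viability minus 3 SD (cut at about 48% in these data, passing the limit was not always enough); inconclusive = at or under the limit in just one replicate; inactive = at or above the limit in both replicates.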
Outcome (select one): 1 (active), 0 (inactive)

Enquiry: # lookup: test call for COC(=O)Nc1sc2c(c1C(=O)N1CCOCC1)CCC(C)C2 (stereo not drawn)
Return: 0

Enquiry: # lookup: test call for CCOC(=O)N1CCN(C(=O)C2c3cc(OC)c(OC)cc3C(=O)N3CCc4ccccc4C23)CC1 (stereo not drawn)
Return: 0

Enquiry: # lookup: test call for Cc1ccc(-n2cnnn2)c2cccnc12
Return: 0

Enquiry: # lookup: test call for O=C(O)c1ccc2c(c1)N(Cc1ccccc1F)C(=O)c1ccccc1S2=O (stereo not drawn)
Return: 0

Enquiry: # lookup: test call for CC(=O)c1cccc(S(=O)(=O)N2CCC(n3nnc4cc(F)ccc43)CC2)c1
Return: 0

Enquiry: # lookup: test call for O=C(CN(CCc1ccccc1)C(=O)CNS(=O)(=O)c1ccccc1)NCC1CCCO1 (stereo not drawn)
Return: 0

Enquiry: # lookup: test call for c1ccc(-c2noc(C34CC5CC(CC(C5)C3)C4)n2)nc1
Return: 0

Enquiry: # lookup: test call for CCN(C(=O)Cc1c(C(=O)O)[nH]c2ccccc12)c1cc(OC)ccc1OC
Return: 0

Enquiry: # lookup: test call for Cn1c(SCCN2CCCCC2)nnc1-c1ccccc1Br
Return: 0

Enquiry: # lookup: test call for CCOC(=O)c1ccc(S(=O)(=O)NC2CCCCCCC2)n1C
Return: 0

Enquiry: # lookup: test call for CCCCS(=O)(=O)NC1=NCN(C2CCN(Cc3ccccc3)CC2)CN1
Return: 0

Enquiry: # lookup: test call for S=C(N=Nc1ccccc1)NNc1ccccc1
Return: 0

Enquiry: # lookup: test call for CC(=O)c1cccc(-n2nnnc2SCC(=O)N2CCCC2)c1
Return: 0

Enquiry: # lookup: test call for CCOC(=O)c1[nH]c(C)c(C(=O)Nc2ccc(C)c(Cl)c2)c1C
Return: 1

###

assay: HUVEC growth inhibition – cell-based, human, primary screen (AID 575); settings: HUVEC proliferation, CellTiter-Glo luminescence, 72 h; at 10 µM; stronger effect = lower value;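 note: 100% = median of untreated cell wells with 0.1% DMSO on each plate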
# viability listing for each entry below
Return type: number; implicit unit %.

Worked cases, answers included:
Cc1coc2cc3oc(=O)c4c(c3cc12)CCC4 : 85.1
CCCCC(=O)O[C@]1(C(=O)CO)CC[C@H]2[C@@H]3CCC4=CC(=O)CC[C@]4(C)[C@H]3[C@@H](O)C[C@@]21C : 101

Kindly review the next molecule as well.
Enquiry: Item under review: O=C(c1cccnc1)N1CCc2ccccc21 . Reported viability?
Return: 88.1

###

test: reversal of MRP1-mediated doxorubicin resistance, pilot screen, H69AR cells, doxorubicin co-treatment (AID 601); settings: H69AR cells + 2 uM doxorubicin, CellTiter-Glo, 72 h; measured here: viability with 2 uM doxorubicin; at 10 µM; stronger effect = lower value
EXPERIMENTAL_ENDPOINT: viability (%)
Return type: number; implicit unit %.

Worked cases, answers included:
CCOc1ccc(C(=O)N2CCN(c3ccccc3)CC2)cc1OCC : 98.3
COc1ccc(-c2coc3cc(O)cc(O)c3c2=O)cc1 : 95.8
O=C(CSc1nnc2sc3ccccc3n12)c1ccco1 : 85.3
CC(C)Cn1c(=O)c(C(=O)Nc2ccccc2S(N)(=O)=O)c(O)c2ccccc21 : 27.5
CCOC(=O)c1[nH]c2ccccc2c1NC(=O)C(CC)CC : 79.4

Enquiry: Item under review: O=C(COc1ccc(Cl)cc1)NCc1nnc(SCC(=O)Nc2ccc3c(c2)OCCO3)o1 . Reported viability?
Return: 101

Enquiry: Item under review: COc1ccc(N2CCN(Cc3nc4ccccc4c(=O)[nH]3)CC2)cc1 . Reported viability?
Return: 96.8

Enquiry: Item under review: Cc1cc(-c2ccccc2)nc2cc(C(=O)NCCCn3ccnc3)nn12 . Reported viability?
Return: 79.3

###

biological target: Receptor tyrosine-protein kinase erbB-2 (Homo sapiens); experiment: reducers of endogenous Her2 protein level, primary screen, SKBR3 breast tumor cells, AlphaScreen, ATP viability (AID 461); conditions: 18-24 h, at 10 µM, stronger effect = lower value;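 note: lower value means less Her2 protein in the cells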
# Her2 level listing for each entry below
Return type: number; implicit unit %.

Worked cases, answers included:
CC1/C(=N/O)C(CN(C)C)C2CC1C2(C)C (stereo unspecified) : 84.5
O=C(O)c1cccc(S(=O)(=O)N2CCOCC2)c1 : 121
CCOc1nc(-c2ccccc2)ccc1-c1noc(-c2cccnc2)n1 : 90
CCOC(=O)c1cc(CC)sc1NC(=O)CCC(=O)O : 93
CCCn1c(C)cc(C(=O)COc2ncnc3sccc23)c1C : 98.5
CCN1CCN(c2cc3c(cc2F)c(=O)c(C(=O)O)cn3C2CC2)CC1 : 98.5
O=C(O)CCNc1ccc2c(c1)OCCO2 : 86.5
C[C@H](NC(=O)Nc1cccc(C(F)(F)F)c1)C(=O)O : 108

Kindly review the next compound as well.
Enquiry: Item under review: COc1cccc(/C=N/n2c(C)nc3ccccc32)c1OC . Reported Her2 level?
Return: 93.5

###

assay: reversal of MRP1-mediated doxorubicin resistance, pilot screen, H69AR cells, doxorubicin co-treatment (AID 601); conditions: H69AR cells + 2 uM doxorubicin, CellTiter-Glo, 72 h; at 10 µM; stronger effect = higher value
Activity calls are given as the source filed them.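 Rule for the calls: active = viability loss from added drug above about 55%, and viability with drug at most 40%, in both replicates (limit read from the data, passing the limit was not always enough); inconclusive = both conditions met in only one replicate; inactive = neither replicate meets both conditions.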
# differential viability (reversal) listing for each entry below

C=CS(=O)(=O)c1ccc(Oc2ccc(S(=O)(=O)C=C)cc2)cc1 : 0.405% (inactive)
CN(C)C(=O)N1CCCC(C(=O)NCc2ccccc2)C1 (stereo not given) : -18.9% (inactive)
CC(=O)Nc1ccc(S(=O)(=O)n2nc(C)cc2C)cc1 : 5.88% (inactive)
O=C(NC1CCN(Cc2nnnn2CCc2ccccc2)CC1)c1ccccc1F : -11.7% (inactive)
COc1ccccc1OCC(O)COC(N)=O (stereo not given) : 7.94% (inactive)

Enquiry: Item under review: c1ccc(-c2nnc(CN3CCC4(CC3)OCCO4)o2)cc1 . Reported differential viability (reversal)?
Return: 8.52% (inactive)

Enquiry: Item under review: Cc1cccc(C)c1NC(=O)C1CCCCN1C (stereo not given) . Reported differential viability (reversal)?
Return: 12% (inactive)

Enquiry: Item under review: CCOC(=O)c1c(C)[nH]c(C(=O)CSc2nc3ccccc3o2)c1C . Reported differential viability (reversal)?
Return: -18.9% (inactive)

Enquiry: Item under review: Cc1ccc(S(=O)(=O)N(CC(=O)NCc2ccco2)Cc2ccccc2F)cc1 . Reported differential viability (reversal)?
Return: 21.3% (inactive)

Enquiry: Item under review: COc1cccc(OC)c1C(=O)n1nc(C)cc1C . Reported differential viability (reversal)?
Return: 3.22% (inactive)

Enquiry: Item under review: Cc1csc2nc3ccccc3c(=O)n12 . Reported differential viability (reversal)?
Return: 1.49% (inactive)

Enquiry: Item under review: COc1ccc(NC(=O)CCS(=O)(=O)c2ccc(OC)cc2)cc1 . Reported differential viability (reversal)?
Return: -9.78% (inactive)

Enquiry: Item under review: CC(=O)Nc1c(C(=O)C2CC2)oc2ccccc12 . Reported differential viability (reversal)?
Return: 7.75% (inactive)

Enquiry: Item under review: COc1cc(OC)cc(C(=O)N2c3ccc(F)cc3CCC2C)c1 (stereo not given) . Reported differential viability (reversal)?
Return: 6.82% (inactive)

Enquiry: Item under review: COc1cccc(NC(=O)Cc2nnc(SCC(=O)c3ccccc3)n2C)c1 . Reported differential viability (reversal)?
Return: 8.65% (inactive)

Enquiry: Item under review: CCOC(=O)N1CCC(N2C(=O)c3ccc(C(=O)NCc4ccco4)cc3C2=O)CC1 . Reported differential viability (reversal)?
Return: 4.97% (inactive)

Enquiry: Item under review: O=C(NCCC1=CCCCC1)C1CC(=O)N(C2CCCCCC2)C1 (stereo not given) . Reported differential viability (reversal)?
Return: 11% (inactive)

###

test: viability gain of MRP-1-high H69AR cells under doxorubicin, pilot screen, MRP-1 activator project, CellTiter-Glo, duplicate (AID 807); details: H69AR viability with doxorubicin, CellTiter-Glo luminescence; at 10 µM; stronger effect = higher value;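 note: compound pretreatment 18-22 h then 72 h combined with doxorubicin; 0% = doxorubicin alone and 100% = vehicle without doxorubicin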
EXPERIMENTAL_ENDPOINT: viability increase (%)
Return type: number; implicit unit %.

Worked cases, answers included:
COc1ccc(CC(=O)N2CC3(C)CC2CC(C)(C)C3)cc1OC (stereo not drawn) : -2.91
Cn1c(C(=O)N2CCC(C(=O)N3CCN(Cc4ccc5c(c4)OCO5)CC3)CC2)cc2sccc21 : -2.38
O=C1CC(c2ccco2)CC(O)=C1C=NCC1CCNCC1 (stereo not drawn) : 1.85
O=C(O)CSc1cccc2cccc(C(=O)O)c12 : -2.27
CCC(=O)Nc1c2c(nn1-c1cccc(Cl)c1)CSC2 : -1.61
S=C(Nc1ccccn1)c1ccccn1 : -8.21
CCn1ccc(C(=O)Nc2ccc(Cl)cn2)n1 : -1.34

Kindly review the next compound as well.
Enquiry: Item under review: CC(CNCc1ccc2c(c1)OCO2)NCc1ccc2c(c1)OCO2 (stereo not drawn) . Reported viability increase?
Return: -3.34
